Provide the recorded DC50 for the entries that follow.
- TESTED_SYSTEM: p300 (Homo sapiens, UniProt Q09472)
- Construct: host or cells: A549 P300 HiBit cells
- Sequence (Q09472 whole entry): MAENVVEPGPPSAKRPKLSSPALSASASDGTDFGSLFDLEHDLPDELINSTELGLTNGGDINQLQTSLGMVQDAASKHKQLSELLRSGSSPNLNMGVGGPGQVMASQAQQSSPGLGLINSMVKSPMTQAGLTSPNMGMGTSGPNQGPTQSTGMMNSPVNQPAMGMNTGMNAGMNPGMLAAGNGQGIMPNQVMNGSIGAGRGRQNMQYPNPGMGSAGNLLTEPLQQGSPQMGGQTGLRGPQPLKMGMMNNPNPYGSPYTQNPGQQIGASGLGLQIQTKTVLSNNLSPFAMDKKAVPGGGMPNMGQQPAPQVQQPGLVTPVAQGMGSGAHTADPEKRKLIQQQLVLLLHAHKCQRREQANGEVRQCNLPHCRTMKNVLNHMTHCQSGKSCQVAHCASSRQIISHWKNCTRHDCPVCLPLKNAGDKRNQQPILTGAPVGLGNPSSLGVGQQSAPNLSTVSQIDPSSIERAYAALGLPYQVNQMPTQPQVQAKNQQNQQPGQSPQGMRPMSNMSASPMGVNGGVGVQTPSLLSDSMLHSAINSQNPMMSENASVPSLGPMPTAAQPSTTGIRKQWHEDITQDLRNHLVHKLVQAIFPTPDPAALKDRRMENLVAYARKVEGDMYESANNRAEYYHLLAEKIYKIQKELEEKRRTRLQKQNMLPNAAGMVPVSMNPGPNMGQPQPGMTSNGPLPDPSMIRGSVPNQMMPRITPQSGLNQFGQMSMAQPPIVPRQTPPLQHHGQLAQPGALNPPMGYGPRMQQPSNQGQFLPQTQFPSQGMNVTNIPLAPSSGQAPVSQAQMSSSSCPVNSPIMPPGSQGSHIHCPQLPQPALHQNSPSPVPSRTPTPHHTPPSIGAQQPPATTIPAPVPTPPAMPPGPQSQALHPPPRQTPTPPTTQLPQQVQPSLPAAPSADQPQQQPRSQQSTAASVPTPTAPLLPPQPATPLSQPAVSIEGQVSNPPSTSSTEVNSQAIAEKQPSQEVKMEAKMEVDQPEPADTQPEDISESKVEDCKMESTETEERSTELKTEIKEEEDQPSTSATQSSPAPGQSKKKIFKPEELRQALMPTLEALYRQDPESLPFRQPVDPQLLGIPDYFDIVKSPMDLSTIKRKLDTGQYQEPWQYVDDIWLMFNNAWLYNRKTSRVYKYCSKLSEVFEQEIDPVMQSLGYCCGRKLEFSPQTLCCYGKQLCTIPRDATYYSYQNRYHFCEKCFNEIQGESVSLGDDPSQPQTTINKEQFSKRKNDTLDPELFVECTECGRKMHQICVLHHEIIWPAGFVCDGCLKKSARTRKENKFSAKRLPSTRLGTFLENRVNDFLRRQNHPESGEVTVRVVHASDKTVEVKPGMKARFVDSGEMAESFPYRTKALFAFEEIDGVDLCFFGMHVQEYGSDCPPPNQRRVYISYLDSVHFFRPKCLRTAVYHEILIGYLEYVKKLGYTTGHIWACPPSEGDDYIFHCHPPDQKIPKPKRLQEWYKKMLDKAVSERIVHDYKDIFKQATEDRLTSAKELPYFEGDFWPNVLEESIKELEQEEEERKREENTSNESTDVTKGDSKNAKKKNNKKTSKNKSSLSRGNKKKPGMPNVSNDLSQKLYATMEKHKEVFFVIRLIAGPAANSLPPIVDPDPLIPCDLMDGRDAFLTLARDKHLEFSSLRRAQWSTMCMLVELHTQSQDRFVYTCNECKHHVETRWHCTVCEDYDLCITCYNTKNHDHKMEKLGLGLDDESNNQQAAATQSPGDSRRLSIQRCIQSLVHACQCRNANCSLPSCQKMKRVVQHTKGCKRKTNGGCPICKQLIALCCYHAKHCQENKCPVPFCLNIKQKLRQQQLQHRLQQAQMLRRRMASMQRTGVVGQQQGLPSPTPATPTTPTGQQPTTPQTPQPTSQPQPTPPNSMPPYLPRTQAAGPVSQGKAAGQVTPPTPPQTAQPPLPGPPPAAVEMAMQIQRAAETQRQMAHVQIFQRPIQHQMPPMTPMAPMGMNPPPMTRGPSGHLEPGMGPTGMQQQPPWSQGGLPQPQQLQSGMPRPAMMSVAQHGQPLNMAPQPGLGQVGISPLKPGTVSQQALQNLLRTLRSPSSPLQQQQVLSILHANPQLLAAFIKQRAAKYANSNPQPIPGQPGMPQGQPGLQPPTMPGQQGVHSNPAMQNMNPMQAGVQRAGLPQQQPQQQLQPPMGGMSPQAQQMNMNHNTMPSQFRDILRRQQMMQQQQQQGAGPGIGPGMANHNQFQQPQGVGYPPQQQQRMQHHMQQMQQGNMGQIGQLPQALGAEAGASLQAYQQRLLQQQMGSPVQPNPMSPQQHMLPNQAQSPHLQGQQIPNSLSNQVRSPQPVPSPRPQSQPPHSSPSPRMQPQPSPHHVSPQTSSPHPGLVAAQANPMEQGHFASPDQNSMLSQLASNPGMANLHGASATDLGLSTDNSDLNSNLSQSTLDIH
- ASSAY_PROTOCOL: P300 degradation, HiBit technology in A549 P300 HiBit cells (2 h)
- Type: cell-based
- TEST_CONTEXT: A549 P300 HiBit cells, 2 hrs post treatment
- Description: p300 and CBP degradation potency and Dmax were determined using in cell western (ICW) assay technology in H1299 cells or HiBit technology in A549 HiBit cells. A549 P300 HiBit and A549 CBP HiBit cells were plated in separate 384-well, TC treated, white-opaque, flat-bottomed microplate. […] After incubation, luminescent signal of each plate was measured using the Envision instrument (Perkin Elmer).

Entry under test: COc1cc(-c2cc3cccc(-c4cc(C(C)C)c5c(c4)n(C)c(=O)n5C)c3cn2)cnc1C(=O)NCC#Cc1ccc2c(c1)c(C1CCC(=O)NC1=O)nn2C (stereo not drawn) . Its DC50 was 1 to 9.9 nM

Entry under test: Cc1cc2c(N3CCCc4nc(-c5ccc(C(=O)NCC#Cc6oc7cccc(C8CCC(=O)NC8=O)c7c6F)nc5)ncc43)cc(C3CCOCC3)cc2n(C)c1=O (stereo not drawn) . Its DC50 was 1 to 9.9 nM

Entry under test: Cc1cc(-c2cc3cccc(-c4cc(F)c5c(c4)n(C)c(=O)n5C)c3cn2)cnc1C(=O)NCC#Cc1ccc2occ(C3CCC(=O)NC3=O)c2c1 (stereo not drawn) . Its DC50 was 1 to 9.9 nM

----------
Provide the recorded DC50 for the entries that follow.
- TESTED_SYSTEM: p300 (Homo sapiens, UniProt Q09472)
- Construct: host or cells: A549 P300 HiBit cells
- ASSAY_PROTOCOL: P300 degradation, HiBit technology in A549 P300 HiBit cells (2 h)
- Type: cell-based
- TEST_CONTEXT: A549 P300 HiBit cells, 2 hrs post treatment

Entry under test: Cc1cc2c(N3CCCc4nc(-c5ccc(C(=O)NCC#Cc6ccc7occ(C8CCC(=O)NC8=O)c7c6)nc5)ncc43)nc(N3CC[Si](C)(C)CC3)cc2n(C)c1=O (centres unmarked) [Example B139] . Its DC50 was 100 to 999 nM

Entry under test: Cc1cc(-c2ncc(N(C)c3cc(C(C)C)c4c(c3)n(C)c(=O)n4C)cc2C#N)cnc1C(=O)NCC#Cc1ccc2occ(C3CCC(=O)NC3=O)c2c1 (centres unmarked) [Example A98] . Its DC50 was 1 to 9.9 nM

Entry under test: Cc1cc(-c2cc3c(cc2F)N(c2cccc4c2cc(C)c(=O)n4C)CCO3)cnc1C(=O)NCC#Cc1ccc2occ(C3CCC(=O)NC3=O)c2c1 (centres unmarked) [Example B21] . Its DC50 was 1 to 9.9 nM

Entry under test: Cn1c(=O)n(C)c2cc(-c3cccc4cc(-c5cnc(C(=O)NCC#Cc6ccc7occ(C8CCC(=O)NC8=O)c7c6)c(Cl)c5)ncc34)ccc21 (centres unmarked) [Example A73] . Its DC50 was 1 to 9.9 nM

Entry under test: CCc1cc(Oc2ccc(-c3cnc(C(=O)NCC#Cc4cccc(NC5CCC(=O)NC5=O)c4)c(C)c3)nc2)c2cc(C)c(=O)n(C)c2c1 (centres unmarked) [Example B17] . Its DC50 was > 1000 nM

Entry under test: Cc1cc(-c2ncc3c(n2)CCCN3c2cccc3c2cc(C)c(=O)n3C)cnc1C(=O)NCC#Cc1cc2c(C3CCC(=O)NC3=O)cccc2o1 (centres unmarked) [Example B153] . Its DC50 was < 1 nM

Entry under test: Cc1cc2c(N3CCCc4nc(-c5ccc(C(=O)NCC#Cc6cc7c(C8CCC(=O)NC8=O)cccc7o6)nc5)ncc43)cc(C3(F)CCOCC3)cc2n(C)c1=O (centres unmarked) [Example B82] . Its DC50 was 1 to 9.9 nM

Entry under test: Cc1cc2c(N3CCCc4nc(-c5cnc(C(=O)NCC#Cc6ccc7occ(C8CCC(=O)NC8=O)c7c6)c(Cl)c5)ncc43)cccc2n(C)c1=O (centres unmarked) [Example B155] . Its DC50 was 1 to 9.9 nM

Entry under test: Cn1c(=O)n(C)c2c(F)cc(-c3cccc4cc(-c5ccc(C(=O)NCC#Cc6ccc7occ(C8CCC(=O)NC8=O)c7c6)nc5)ncc34)cc21 (centres unmarked) [Example A64] . Its DC50 was 1 to 9.9 nM

Entry under test: CC(C)c1cc(N2CCOc3cc(-c4ccc(C(=O)NCC#Cc5ccc6occ(C7CCC(=O)NC7=O)c6c5)nc4)ncc32)cc2c1n(C)c(=O)n2C (centres unmarked) [Example A58] . Its DC50 was 1 to 9.9 nM

Entry under test: COc1nn(C2CCC(=O)NC2=O)c2cc(C#CCNC(=O)c3ccc(-c4cc5cccc(-c6cc(C(C)C)c7c(c6)n(C)c(=O)n7C)c5cn4)cn3)ccc12 (centres unmarked) [Example A4] . Its DC50 was 10 to 99 nM

Entry under test: CC(C)c1cc(C(F)(F)c2ccc(-c3ccc(C(=O)NCC#Cc4ccc5occ(C6CCC(=O)NC6=O)c5c4)nc3)nc2)cc2c1n(C)c(=O)n2C (centres unmarked) [Example A81] . Its DC50 was > 1000 nM

Entry under test: Cc1cc2c(N3CCN(C)c4cc(-c5ccc(C(=O)NCC#Cc6cc7c(C8CCC(=O)NC8=O)cccc7o6)nc5)ncc43)cc(C(C)C)cc2n(C)c1=O (centres unmarked) [Example B95] . Its DC50 was < 1 nM

Entry under test: CC(C)c1cc(N2CCCc3cc(-c4ccc(C(=O)NCC#Cc5ccc6occ(C7CCC(=O)NC7=O)c6c5)nc4)c(C(F)F)cc32)cc2c1n(C)c(=O)n2C (centres unmarked) [Example A151] . Its DC50 was 1 to 9.9 nM

Entry under test: Cc1cc(-c2cnc(N(C)c3cc(C4CCOCC4)c4c(c3)n(C)c(=O)n4C)cn2)cnc1C(=O)NCC#Cc1ccc2occ(C3CCC(=O)NC3=O)c2c1 (centres unmarked) [Example A128] . Its DC50 was 1 to 9.9 nM

Entry under test: Cc1cc2c(N3CCCc4nc(-c5ccc(C(=O)NCC#Cc6cc7c(C8CCC(=O)NC8=O)cccc7o6)nc5)ncc43)cc(C3CCOCC3)nc2n(C)c1=O (centres unmarked) [Example B47] . Its DC50 was < 1 nM

Entry under test: Cc1cc(-c2ncc(N(C)c3cc(C4CCOCC4)c4c(c3)n(C)c(=O)n4C)nn2)cnc1C(=O)NCC#Cc1ccc2occ(C3CCC(=O)NC3=O)c2c1 (centres unmarked) [Example A90] . Its DC50 was 1 to 9.9 nM
